Listed here: items and their measured ED50.
# Test system: Staphylococcus aureus
# assay.overview: In vivo efficacy of compounds administered subcutaneously in mouse intraperitoneal infections
# setup.conditions: sc, 168 h; mouse i.p. Staphylococcus aureus infection; subcutaneous; dosed at infection and 4 h post-infection; 7 days; read-out: ED50 (50 percent effective dose)
endpoint: ED50

{"compound": "CC(=O)NCC1CN(c2ccc(S)cc2)C(=O)O1 (single isomer, unassigned) [Example 153]", "endpoint": "ED50", "result": "< 13 mg/kg"}
{"compound": "CCC(=O)c1ccc(N2CC(CNC(C)=O)OC2=O)cc1 (stereo not shown) [Example 134]", "endpoint": "ED50", "result": "< 4.4 mg/kg"}
{"compound": "CC(=O)NCC1CN(c2ccc(C(=O)CCl)cc2)C(=O)O1 (stereo not shown) [Example 135]", "endpoint": "ED50", "result": "< 4.4 mg/kg"}
{"compound": "CNS(=O)(=O)c1ccc(N2CC(CNC(C)=O)OC2=O)cc1 (stereo not shown) [Example 46]", "endpoint": "ED50", "result": "> 13 mg/kg"}

---

# Test system: Staphylococcus epidermidis
# assay.overview: In vitro broth dilution minimal inhibitory concentration (standard microdilution method)
# Type: cell-based
# setup.conditions: 24 h, Mueller-Hinton broth, 24-hour, read-out: Microdilution Broth MIC

{"compound": "COC(=O)NCC1CN(c2ccc(C(C)=O)cc2)C(=O)O1 (stereo not shown)", "output.unit": "µg/mL", "MIC": 4}
{"compound": "C=Cc1ccc(N2CC(CNC(C)=O)OC2=O)cc1 (stereo not shown)", "output.unit": "µg/mL", "MIC": 4}
{"compound": "CSc1ccc(N2CC(CNC(C)=O)OC2=O)cc1 (single isomer, unassigned)", "output.unit": "µg/mL", "MIC": 3.9}
{"compound": "COC(=O)c1ccc(N2CC(CNC(C)=O)OC2=O)cc1 (single isomer, unassigned)", "output.unit": "µg/mL", "MIC": 4}

---

# Tested on: Staphylococcus epidermidis
# assay.overview: In vitro broth dilution minimal inhibitory concentration (standard microdilution method)
# Assay type: cell-based
# setup.conditions: 24 h, Mueller-Hinton broth, 24-hour, read-out: Microdilution Broth MIC
endpoint: MIC

{"compound": "COC(=O)NCC1CN(c2ccc(S)cc2)C(=O)O1 (single isomer, unassigned) [Example 156]", "result": "> 200 µg/mL"}
{"compound": "CCCCCCN(CC1CN(c2ccc(S(C)(=O)=O)cc2)C(=O)O1)C(C)=O (racemic) [Example 122]", "result": "> 200 µg/mL"}
{"compound": "CS(=O)(=O)c1ccc(N2CC(CNC(=O)C(N)c3ccccc3)OC2=O)cc1 (stereo not drawn) [Example 78]", "result": "> 200 µg/mL"}

---

# System: Staphylococcus aureus
# assay.overview: In vivo efficacy of compounds administered subcutaneously in mouse intraperitoneal infections
# setup.conditions: sc, 168 h; mouse i.p. Staphylococcus aureus infection; subcutaneous; dosed at infection and 4 h post-infection; 7 days; read-out: ED50 (50 percent effective dose)

{"molecule": "COC(=O)NCC1CN(c2ccc(S)cc2)C(=O)O1 (single isomer, unassigned)", "ED50": "< 4.4 mg/kg"}
{"molecule": "CCCc1ccc(N2CC(CNC(C)=O)OC2=O)cc1 (stereo not drawn)", "ED50": "< 4.4 mg/kg"}
{"molecule": "CC(=O)NCC1CN(c2ccc([N+](=O)[O-])cc2)C(=O)O1 (single isomer, unassigned)", "ED50": "> 13 mg/kg"}

Source of measurements: patent US4705799A
